TARGET_UNDER_TEST: T1, hu-M-IL1RAP construct, positions S21-T367 (extracellular domain of the membrane form of human IL1RAP) (human, UniProt Q9NPH3 21-367)
T1 construct: Biotinylated when captured on the Biacore chip
T1 sequence: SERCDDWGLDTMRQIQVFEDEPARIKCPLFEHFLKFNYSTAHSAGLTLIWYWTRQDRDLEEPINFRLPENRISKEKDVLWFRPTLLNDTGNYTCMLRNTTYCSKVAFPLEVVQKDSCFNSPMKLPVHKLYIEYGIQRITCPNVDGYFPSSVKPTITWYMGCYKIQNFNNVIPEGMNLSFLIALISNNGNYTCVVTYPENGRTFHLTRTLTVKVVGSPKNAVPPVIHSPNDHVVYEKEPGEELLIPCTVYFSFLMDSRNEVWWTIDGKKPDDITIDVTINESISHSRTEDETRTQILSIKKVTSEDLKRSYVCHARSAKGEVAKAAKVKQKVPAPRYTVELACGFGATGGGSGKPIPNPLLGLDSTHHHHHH
ASSAY_COMMENT: SPR, Fab analyte, 37 C
Assignment: determine reported kon for the given binders.
A number alone suffices; assume M⁻¹ s⁻¹.

Task: What does the record list as kon for K17 Fab (VL A51Y/W92K) (Fab, V domains shown, Fab with 8xHis tag) VH: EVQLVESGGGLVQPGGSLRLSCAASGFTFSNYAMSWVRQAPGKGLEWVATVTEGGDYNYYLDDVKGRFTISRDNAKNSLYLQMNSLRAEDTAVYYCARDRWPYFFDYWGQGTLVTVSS VL: DIQMTQSPSSLSASVGDRVTITCRASENIYSNLAWYQQKPGKSPKLLVYGYKNLADGVPSRFSGSGSGTDYTLTISSLQPEDFATYYCQHFKTTPRTFGGGTKVEIK ?
Output: 3.6e+06

Task: What does the record list as kon for H3 Fab (VH V51S) (Fab, V domains shown, Fab with 8xHis tag) VH: EVQLVESGGGLVQPGGSLRLSCAASGFTFSNYAMSWVRQAPGKGLEWVATSTEGGDYNYYLDDVKGRFTISRDNAKNSLYLQMNSLRAEDTAVYYCARDRWPYFFDYWGQGTLVTVSS VL: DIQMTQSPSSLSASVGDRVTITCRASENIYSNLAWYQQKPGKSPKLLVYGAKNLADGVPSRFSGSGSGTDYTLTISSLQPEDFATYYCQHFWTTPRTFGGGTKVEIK ?
Output: 4.82e+06
